Counter-ions that a name gives are not always drawn.
Please respond with reported melting point for every item in the list.

Ask | Return reported melting point; argument: Cn1c(=O)c2c(-c3ccncc3)n(Cc3cccc4ccccc34)nc2n(C[S+]([O-])c2ccccc2)c1=O (centres unmarked) [Example 128]
Reply | 130 to 135 °C

Ask | Try this compound too: CC(C)Cn1c(=O)n(C)c(=O)c2c(-c3cccc(-c4nnn[nH]4)c3)n(Cc3cccc4ccccc34)nc21 [Example 129]
Reply | 251 to 254 °C

Ask | Try this compound too: CC(C)Cn1c(=O)n(C)c(=O)c2c(-c3ccccc3F)n(Cc3csc4ccccc34)nc21 [Example 131]
Reply | 55 to 57 °C

Ask | Try this compound too: CCC(C#N)n1c(=O)n(C)c(=O)c2c(-c3ccncc3)n(Cc3cccc4ccccc34)nc21 (racemic) (as salt: trifluoroacetate) [Example 130]
Reply | 75 to 77 °C

Ask | Try this compound too: Cn1c(=O)c2c(-c3ccncc3)n(Cc3cccc4ccccc34)nc2n(C[S+](C)[O-])c1=O (racemic) [Example 127]
Reply | 107 to 109 °C
